System: PBMC
assay.protocol: ELISPOT (IFNγ, IL-5, IL-10, IL-17, IL-21) of PBMC expanded 14 days with Bla g extract, then stimulated with peptides or peptide pools
Type: cell-based, human
Design: key: spot forming cells (SFC) per 10^6 PBMC
condition: non-redundant epitopes; sensitized donors
Recorded Average Magnitude of Response for the following sequences

// below: answered sequences
# biosequence, result.value
rows = [
    ("DCGVAGFRVDAAKHM", 3.9),
    ("SVNATVVRLQSWQSE", 4.1),
    ("HTKLSSSSSITLTLP", 6.2),
    ("KTPVLEIDGKQTHQS (listed as Blattella germanica)", 57.0),
]

Measured Average Magnitude of Response, "LRLSEHLDYVKNLTV" : 3.1

Measured Average Magnitude of Response, "RGNNAIKWLVNFGVG" : 15.0
